- system_under_test: Human FXRα Ligand Binding Domain (FXRα LBD) (Homo sapiens)
- Construct: polyhistidine (N); made in house; host or cells: E. coli BL21 (DE3), pRSET-A vector
- Sequence (Q96RI1 236-486): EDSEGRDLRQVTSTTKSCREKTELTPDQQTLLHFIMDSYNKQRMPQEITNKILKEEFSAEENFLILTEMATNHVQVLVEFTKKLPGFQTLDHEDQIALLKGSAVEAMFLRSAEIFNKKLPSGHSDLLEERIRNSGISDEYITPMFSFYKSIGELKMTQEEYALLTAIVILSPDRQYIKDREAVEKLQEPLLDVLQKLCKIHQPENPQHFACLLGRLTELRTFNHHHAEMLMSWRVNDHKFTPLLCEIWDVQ
- assay_summary: FXR Affinity Binding Assay: ligand mediated cofactor peptide (SRC-1 LCD2, 676-700) interaction, time resolved fluorescence
- measurement_parameters: FXRα LBD-APC / europium labeled SRC-1 peptide, TRF signal, at least 2 hours at room temperature; read-out: Activity (pEC50) (converted)
# EC50 listing for each entry below

Completed entries (count: 3):
substance_smiles: COC(=O)c1ccc(S(=O)(=O)Nc2ccc(OCc3c(-c4c(Cl)cccc4Cl)noc3C(C)C)cc2)cc1
system_under_test: Human FXRα Ligand Binding Domain (FXRα LBD) (Homo sapiens)
EC50: 1.02 to 10 µM
--
substance_smiles: Cc1cc(OCc2c(-c3ccccc3OC(F)(F)F)noc2C(C)C)ccc1N(C)C(=O)c1cccc(C(=O)O)c1
system_under_test: Human FXRα Ligand Binding Domain (FXRα LBD) (Homo sapiens)
EC50: 0.102 to 1 µM
--
substance_smiles: Cc1cc(OCc2c(-c3ccccc3OC(F)(F)F)noc2C(C)C)ccc1NS(=O)(=O)c1cccc(C(=O)O)c1
system_under_test: Human FXRα Ligand Binding Domain (FXRα LBD) (Homo sapiens)
EC50: 0.102 to 1 µM

Query block: I am curious: what EC50 value has been reported for CC(C)c1onc(-c2c(Cl)cccc2Cl)c1COc1ccc(N(C)S(=O)(=O)c2ccc(C(=O)O)cc2)cc1 ?
Result block: 0.102 to 1 µM

Query block: I am curious: what EC50 value has been reported for CC(C)c1onc(-c2ccccc2OC(F)(F)F)c1COc1ccc(CSc2cccc(C(=O)O)c2)c(Cl)c1 ?
Result block: 0.102 to 1 µM

Query block: I am curious: what EC50 value has been reported for Cc1cc(OCc2c(-c3c(Cl)cccc3Cl)noc2C(C)C)ccc1COc1cccc(C(=O)O)c1 ?
Result block: < 0.1 µM

Query block: I am curious: what EC50 value has been reported for CC(C)c1onc(-c2c(Cl)cccc2Cl)c1COc1ccc(N(C)C(=O)c2ccc(C(=O)O)cc2)c(Cl)c1 ?
Result block: 0.102 to 1 µM
